- System: HEp-2 cells
- TEST SUMMARY: Cytotoxicity assay (MTT)
- Type: cell-based
- TEST CONTEXT: 72 hours
Each item that follows carries a reported MNCC.
RECORDED METRIC: MNCC

entry_smiles=O=C(CCc1ccc(O[C@@H]2O[C@H](CO)[C@@H](O)[C@H](O)[C@H]2O)c(O)c1)NCCCCNCCCNC(=O)CCc1ccc(O[C@@H]2O[C@H](CO)[C@@H](O)[C@H](O)[C@H]2O)c(O)c1 result=">100 µM"
entry_smiles=O=C(/C=C\c1ccc(O)c(O[C@@H]2O[C@H](CO)[C@@H](O)[C@H](O)[C@H]2O)c1)NCCCNCCCCNC(=O)CCc1ccc(O[C@@H]2O[C@H](CO)[C@@H](O)[C@H](O)[C@H]2O)c(O)c1 result=">100 µM"
